Assay: chemical genetic growth profiling, strain panel (AID 1159580);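 also: tested at 20 µM; growth read once vehicle control cultures reached saturation at 30 °C; 1 = growth at the plate median or of vehicle wells; lower values mean less growth of the strain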
Settings: S. cerevisiae deletion strains, growth OD, locus YGR092W, strain DBF2, stronger effect = lower value
Screen size: about 5,500 compounds; about 2,000 (36%) were called active. Roughly 18% stayed inconclusive and do not appear here. The list shows a part of the results.
attributeMeasured: normalized growth
Numbers only.

Worked cases, answers included:
I would be grateful if you could share the reported normalized growth for CC(C)(C)c1ccc(-c2cc(NC(=O)c3ccc(Cl)cc3)n[nH]2)cc1 .
0.933

I would be grateful if you could share the reported normalized growth for S=C(NCc1cccs1)Nc1cc(Cl)cc(Cl)c1 .
0.739

I would be grateful if you could share the reported normalized growth for NNC(=O)c1oc2nc(-c3ccccc3)cc(-c3ccccc3)c2c1N .
0.943

I would be grateful if you could share the reported normalized growth for O=C1C(NCc2ccccc2)=C(NCc2ccccc2)C(=O)c2ccccc21 .
0.744

Let us examine a further case.
I would be grateful if you could share the reported normalized growth for O=C1c2ccccc2C(=O)c2sccc21 .
0.152
